Where do these numbers come from? They come from patent US20170088624A1.

# TARGET SYSTEM: Full length human CD40 (huCD40) on cells (human, UniProt P25942 21-277)
# Sequence (P25942 21-277): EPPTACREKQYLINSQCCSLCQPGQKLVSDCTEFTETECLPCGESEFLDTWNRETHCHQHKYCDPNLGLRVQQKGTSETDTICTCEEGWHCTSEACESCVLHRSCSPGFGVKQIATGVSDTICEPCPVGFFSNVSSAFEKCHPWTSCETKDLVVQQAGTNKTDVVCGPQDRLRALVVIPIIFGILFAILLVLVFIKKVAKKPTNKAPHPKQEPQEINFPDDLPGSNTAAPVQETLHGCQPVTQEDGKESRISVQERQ
# TEST NAME: cell-based or functional assay
REPORTED METRIC: EC50, agonistic activity on HEK-Blue™ CD40L cells (NF-κB/SEAP) (µg/mL)
// note: answer is a bare numeric in µg/mL

GET /value?item= C40M18 (antibody, human IgG1, lambda, V domains shown, Full-length IgG1/lambda; from OmniRat (OMT); VH C40H48, VL C40L64) VH: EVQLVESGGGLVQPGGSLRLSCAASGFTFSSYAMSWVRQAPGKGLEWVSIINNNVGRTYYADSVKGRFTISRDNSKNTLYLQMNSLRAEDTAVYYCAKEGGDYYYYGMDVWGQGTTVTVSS VL: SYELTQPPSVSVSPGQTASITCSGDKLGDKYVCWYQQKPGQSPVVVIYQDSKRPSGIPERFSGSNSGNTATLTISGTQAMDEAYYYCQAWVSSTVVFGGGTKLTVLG &field=EC50, agonistic activity on HEK-Blue™ CD40L cells (NF-κB/SEAP) returns 0.0696
